test-target: T1, human OX40 extracellular domain (ECD) protein (human, UniProt P43489 29-214)
T1 construct: extracellular domain; also called human OX40 ECD; human OX40 protein; not shown: human Fc or His tag
T1 sequence (looked up): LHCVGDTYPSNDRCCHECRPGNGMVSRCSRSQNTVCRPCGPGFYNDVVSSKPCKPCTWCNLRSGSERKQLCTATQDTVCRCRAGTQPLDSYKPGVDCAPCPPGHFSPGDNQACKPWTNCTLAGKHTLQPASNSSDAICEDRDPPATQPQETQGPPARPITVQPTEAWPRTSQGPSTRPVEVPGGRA
assay-overview: competition ELISA: human OX40 ECD coated, antibody titrated in a mix with a constant concentration of OX40L, bound OX40L detected at OD450
Catalogue of IC50 (read off the curve) readings, one per entry.

Reference set, count: 2
1.214.23-u1-IgG1K (antibody, V domains shown, fully human IgG1, kappa) VH: QVQLQESGPGLVKPSGTLSLTCVVSGGSISNRNWWSWVRQPPGKGLEWIGEIFHSGNTNYNPSLKSRVTISVDKSKNQFSLKVNSVTAADTAVYYCAKSFAVALDSWGQGTLVTVSS VL: DIQLTQSPSFLSASVGDRVTITCRASQDINSYLAWCQQKPGKAPKLLIYAASSLQSGVPSRFSGTGSGTEFTLTISSLQPEDFATYYCQQLFSYPITFGQGTRLEIK : ~1 nM
1.134.9-u1-IgG1L (antibody, V domains shown, fully human IgG1, lambda) VH: QVQLQESGPGLVKPSGTLSLTCAVSGGSISSYNWWSWVRQPPGKGLEWIGEIYHGGNTNYNPSLKSRVTMSVDNSKNQFSLKLSSVTAADTAVYYCARAPGDWGGSPYFDFWGQGTLVTVSS VL: SSELTQDPAVSVALGQTVRITCQGDNLRTYYASWYQQKPGQAPILLIYGRNKRPSGIPDRFSGSSSGNTASLTITGAQAEDEAAYYCNSRDSSGNPVVFGGGTKLTVL : ~1 nM

Next item in the queue.
Q: For 1.7.10-u1-IgG1K (antibody, V domains shown, fully human IgG1, kappa) VH: QVHLVESGGGLVKPGGSLRLSCAASGFTFSDYYMSWIRQAPGKGLEWVSYISGSGNTIYYADSVKGRFTISRDNAKNSLYLQMNSLRADDTAVYFCARERGAAGTGWFDPWGQGTLVTVSS VL: DIQMTQSPSSVSASVGDRVTITCRASQGISSWLAWYQQKPGKAPKLLIYAASSLQGGVPSRFSGSGSGTDFTLTISSLQPEDFATYYCQQVNSFPWTFGQGTKVEIK , what is its reported IC50 (read off the curve)?
Ans: ~3 nM
